- Method description: detection-format interference in TR-FRET ratio – biochemical, artefact control for PPARgamma SRC-2 agonist project, primary screen (AID 1049)
- Run conditions: TR-FRET artefact counter-screen; at 8 µM
The campaign covered roughly 200,000 compounds. About 780 (0.39%) were called active. No stated cut-off is given here; in the data, active means TR-FRET ratio above about 2000; inactive means the rest. The full list was thinned out, with actives kept by preference.
Outcomes you can answer with include only these: active, inactive

In this assay, the call recorded for Cc1nn(CC#N)c(=O)n1N(C)c1ncc(C(F)(F)F)cc1Cl was what? inactive

Similarly, Cc1cccc(OCc2ccc(C(=O)Nc3ccc(F)cc3)cc2)c1 ? inactive

Similarly, Cc1cc(OCCN2CCCC2)cc(C(C)C)c1 ? inactive

Similarly, Cc1cc(C)nc(/N=C2\NC(=O)CC(C(=O)O)N2c2ccc(Cl)cc2Cl)n1 (configuration not stated) ? inactive

Similarly, COc1cc(C2C(C(=O)c3ccc(C)o3)=C(O)C(=O)N2Cc2cccnc2)ccc1O (configuration not stated) ? inactive

Similarly, COc1ccccc1C1/C(=C(/O)c2ccc(OC(C)C)cc2)C(=O)C(=O)N1c1cc(C)on1 (configuration not stated) ? inactive

Similarly, COc1ccc(-n2c(O)c(C=NCC(c3ccco3)N3CCCC3)c3ccccc3c2=O)cc1OC (configuration not stated) ? inactive

Similarly, CCOC(=O)c1ccc[n+](CC(=O)Nc2ccccc2OC(F)F)c1 ? inactive

Similarly, Cc1nc2ccccc2cc1OCc1ccc(F)cc1 ? inactive

Similarly, O=C(c1ccccc1Cl)N(Cc1ccccc1F)N1C(=O)CCCC1=O ? inactive

Similarly, CCN1CCC2(CCN(Cc3cn[nH]c3-c3ccc(OC)c(F)c3)C2)C1 (configuration not stated) ? inactive

Similarly, Cc1cc(NC(C)C)n2c(nc3ccccc32)c1C#N ? inactive

Similarly, COc1cc(C2C(C(=O)c3ccc(C)o3)=C(O)C(=O)N2CCc2ccccc2)ccc1O (configuration not stated) ? inactive

Similarly, Cc1cccc2cc(CN(Cc3ccc4c(c3)OCO4)Cc3nnnn3C3CCCC3)c(=O)[nH]c12 ? active

Similarly, Cc1cc(OCC(=O)NC2CCN(C)CC2)ccc1[N+](=O)[O-] ? inactive

Similarly, COc1ccc(/C(O)=C2/C(=O)C(=O)N(c3nc(C)c(C)s3)C2c2ccco2)cc1 (configuration not stated) ? active

Similarly, Cc1cc(N2C(=O)C(=O)/C(=C(/O)c3ccc(Cl)cc3)C2c2cccc(Br)c2)no1 (configuration not stated) ? active

Similarly, Cc1cccc(N2CCN(C(=O)c3cccc(S(=O)(=O)N4CCc5ccccc5C4)c3)CC2C)c1 (configuration not stated) ? inactive

Similarly, COc1ccc(Cc2nnc(NC(=O)Cc3cccs3)s2)cc1 ? inactive

Similarly, COCC(=O)Nc1nnc(COc2ccccc2)s1 ? inactive

Similarly, COc1ccccc1C1/C(=C(/O)c2ccc(C)cc2)C(=O)C(=O)N1Cc1ccco1 (configuration not stated) ? inactive

Similarly, C/C=N/NC(=O)CCCC(=O)N/N=C/C ? inactive
